# target or system: UniProt P14902
# Sequence (P14902 whole entry): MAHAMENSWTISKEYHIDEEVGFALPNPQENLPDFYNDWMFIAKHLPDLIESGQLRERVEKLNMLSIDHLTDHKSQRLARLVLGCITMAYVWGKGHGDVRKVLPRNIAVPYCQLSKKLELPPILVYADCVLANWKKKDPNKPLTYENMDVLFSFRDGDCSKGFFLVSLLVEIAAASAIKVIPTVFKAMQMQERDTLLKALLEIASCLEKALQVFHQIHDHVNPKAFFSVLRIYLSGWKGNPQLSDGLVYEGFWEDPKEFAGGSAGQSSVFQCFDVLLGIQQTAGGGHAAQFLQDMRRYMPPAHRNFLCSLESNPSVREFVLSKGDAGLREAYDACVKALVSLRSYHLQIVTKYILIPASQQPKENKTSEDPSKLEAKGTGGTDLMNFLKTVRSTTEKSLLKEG
# assay remarks: Cellular IC50 of IDO1
# Assay type: cell-based
# conditions: cellular; read-out: IC50 Cellular IDO1
Recorded IC50 by entry
readout: IC50 (nM)

{"columns": ["molecule", "target or system", "readout", "unit spec", "result"],
 "data": [
  ["Cc1ccc2nc3n(c(=O)c2c1)-c1ccc(Cn2cc(-c4ccccc4)nn2)cc1C3=O [3d]", "UniProt P14902", "IC50", "nM", 547],
  ["O=C1c2cc(Cn3cc(-c4ccccc4)nn3)ccc2-n2c1nc1ccc(Br)cc1c2=O [3e]", "UniProt P14902", "IC50", "nM", 201],
  ["O=C1c2cc(Cn3cc(-c4ccccc4)nn3)ccc2-n2c1nc1ccc(Cl)cc1c2=O [3f]", "UniProt P14902", "IC50", "nM", 245],
  ["O=C1c2cc(Cn3cc(-c4ccccc4)nn3)ccc2-n2c1nc1ccc(F)cc1c2=O [3b]", "UniProt P14902", "IC50", "nM", 335],
  ["CN1CCN(Cc2ccc3nc4n(c(=O)c3c2)-c2ccccc2C4=O)CC1 [1d]", "UniProt P14902", "IC50", "nM", 177],
  ["O=C1c2cc(Cn3cc(-c4ccccc4)nn3)ccc2-n2c1nc1ccccc1c2=O [3a]", "UniProt P14902", "IC50", "nM", 278],
  ["O=C1c2cc(F)ccc2-n2c1nc1ccc(Cn3cc(-c4ccccc4)nn3)cc1c2=O [3c]", "UniProt P14902", "IC50", "nM", 185]
]}
